Attribution: the supplement of paper PMC10567573

B1: PCDHGA10 (parent)
chain: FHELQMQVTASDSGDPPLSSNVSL

- Variants of: B1
- Experimental details: protein stability index of a GFP-peptide fusion (GPS, HEK-293T) (PSI 1-6); higher = more stable;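 note: lentivirally expressed fusions sorted by FACS into six bins by GFP to DsRed ratio, PSI derived from sequencing read proportions per bin multiplied by bin number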
- Setup conditions: c terminus: a fixed tail appended

| Variant name | protein stability index |
| --- | --- |
| S13K | 2.01 |
| D12Q | 1.89 |
| S23L | 2.05 |
| A10S | 2.35 |
| Q5G | 2.73 |
| D12H | 1.88 |
| L4R | 2.77 |
| E3D | 2.07 |
| L24P | 2.9 |
| G14Y | 1.94 |
| L4H | 2.87 |
| T9A | 2.55 |
| L24D | 3.17 |
| P16G | 2.33 |
| Q5L | 1.4 |
| L24N | 2.96 |
| S23K | 2.84 |
| S11W | 2.59 |
| D12F | 2.47 |
| S19F | 2.07 |
| G14P | 3.16 |
| Q7A | 2.04 |
| F1P | 4.8 |
| Q7V | 1.82 |
| A10Y | 2.02 |
| S11H | 2.16 |
| L4M | 2.24 |
| S13P | 1.71 |
| P17I | 2.65 |
| N21I | 1.79 |
| S19C | 1.93 |
| L24T | 3.22 |
| D12W | 1.81 |
| S11D | 2.3 |
